These data points were gathered from patent US20180163271A1.

# System: HCC202
# ASSAY_NAME: high throughput growth inhibition assay
# Assay type: cell-based
# EXPERIMENTAL_CONTEXT: Homo sapiens; HCC202, Non-TNBC; viable cells counted day 1 and day 6
pEC50: −log10 of the molar value.
MEASURED_PARAMETER: pEC50

> print(dat)
                                chem.smiles   val
1  CNCc1ccc(-c2[nH]c3cc(F)cc4c3c2CCNC4=O)cc1  6.70

###

# Test system: ZR751
# ASSAY_NAME: high throughput growth inhibition assay
# Type: cell-based
# EXPERIMENTAL_CONTEXT: Homo sapiens, ZR-75-1; ZR751, Non-TNBC; viable cells counted day 1 and day 6
pEC50: −log10 of the molar value.
MEASURED_PARAMETER: pEC50

> print(dat)
                                chem.smiles   val
1  CNCc1ccc(-c2[nH]c3cc(F)cc4c3c2CCNC4=O)cc1  5.33
